Data credit: the OligoGym collection

molecular target: SLC39A12; experiment: pooled miR-30 sensor sort-seq; sequence = guide strand; conditions: shRNA; also: reference of the scale not given here
Value type: sensor-assay potency score (higher = more potent)
One number for each entry.

Known sensor-assay potency score (higher = more potent) results, listed for orientation:
TTTTGATACAAGTACTTCTGGT : -0.57
TTGTGTTTGAACATGAGTCATT : -0.725
TTGCTTGTCACTTAACTTGCTT : -0.0821

Hi! Can you tell me sensor-assay potency score (higher = more potent) for each of these sequences?
1. TTGCAGTTGATTTTACTCCAAC
2. TAGAAATATCTCCACCAGCTGC
3. TTTGATACAAGTACTTCTGGTC
4. TGACACAAGATAGCAATCGTAG
5. TTTATTACTCATGTTGAGCTTT

Output line:
-1.11
-1.07
0.47
-0.876
-0.0356

* * *

biological target: KLHL20; test: pooled miR-30 sensor sort-seq; sequence = guide strand; details: shRNA
Value type: sensor-assay potency score (higher = more potent)
Give bare numbers.

Known sensor-assay potency score (higher = more potent) results, listed for orientation:
TACATTTTGCATACCTACCTTT : -0.113
TTGTTCTTCACTGCGAACGTTT : -0.688
TACAGCATAGATCATGTCCTGA : 0.298

Hi! Can you tell me sensor-assay potency score (higher = more potent) for each of these sequences?
1. TTGAACACTTGTTCTTCACTGC
2. TTTGTCTATGAATACAATGAGG

Output line:
[0.569, -1.57]

* * *

Answer each item with its documented sensor-assay potency score (higher = more potent).
target: TMEM8B; assay: pooled miR-30 sensor sort-seq; sequence = guide strand; details: shRNA
Give bare numbers.

Known sensor-assay potency score (higher = more potent) results, listed for orientation:
TCCATGTCGGTCAAGCTGCAGA : -1.7
TATCTATGCATGACAGTTTGGG : -0.202
ATGTAGAAGTAGTTGTCCCGGG : -0.575
AAGCACTGCTGTCTCTGTCTGT : -0.532
TGAAGGTGTAGACTGCAGCTTC : -0.202

Hi! Can you tell me sensor-assay potency score (higher = more potent) for each of these sequences?
1. TAGAAGTGGACAGAGAAGGTGT
2. TAAGATGCAGACACCACCGCAT

Output line:
0.765
0.345

* * *

target: LIG4; test: pooled miR-30 sensor sort-seq; sequence = guide strand; settings: shRNA
Quick rule for you: sensor-assay potency score (higher = more potent) at -0.6 or higher means satisfied, lower means not satisfied.

Would you please look over these solved cases?
TTTATATACATCTCCATCTTTG : not satisfied
TTGCTGACTAACACCAAGCTTT : satisfied
TTTCTGTAAACATCTTGGCTTC : satisfied
TTTATTGTTACATTTGGCCTTA : satisfied
TTCTTCAGGAGTCTGCTCGTTA : satisfied
TAGCTTTTTATTATTAACCATC : not satisfied
TAGTTTGCTGACTAACACCAAG : not satisfied

Input line: Hello, I need to know if TTCCTTTCTGTAAACATCTTGG has measured sensor-assay potency score (higher = more potent) not below -0.6. Thanks!
Output line: satisfied

* * *

Answer each item with its documented sensor-assay potency score (higher = more potent).
target: LEKR1; test: pooled miR-30 sensor sort-seq; sequence = guide strand; settings: shRNA
Answers are plain numbers.

Known sensor-assay potency score (higher = more potent) results, listed for orientation:
TTCTGCTTCAATCTTCTCCTTC : 0.505
TTAGATTCTTCAGTGTACCGAG : 0.595
TTGCTCTTCAAATTCAACCAAG : -1.09

Hi! Can you tell me sensor-assay potency score (higher = more potent) for each of these sequences?
1. TTTCACAGTCAGCTCTTCCTGT
2. TACTCTTTTCAGTTCATCCGAC
3. TTCTCTACGCACTGTCTCCTGA
4. TATACTTTTGGATTACATCTTG

Output line:
[0.514, 0.07, -0.0391, -0.0779]

Input line: Fill in: sensor-assay potency score (higher = more potent) of TTTAAGAGTGGTCACTTCCTGC is ___
Output line: -0.157

* * *

target: ITPRIP; test: pooled miR-30 sensor sort-seq; sequence = guide strand; conditions: shRNA
Quick rule for you: sensor-assay potency score (higher = more potent) at -0.03 or higher means 1.0, lower means 0.0.

Input line: Hello, I need to know if TTTTCAGTGAACTTTCTCCTGG has measured sensor-assay potency score (higher = more potent) not below -0.03. Thanks!
Output line: 1.0

Input line: Hello, I need to know if TTGATCTTCAGGGACCCCGGGC has measured sensor-assay potency score (higher = more potent) not below -0.03. Thanks!
Output line: 0.0

Input line: Hello, I need to know if TTGGTCTTGCCGCAGATGCAGC has measured sensor-assay potency score (higher = more potent) not below -0.03. Thanks!
Output line: 0.0

Input line: Hello, I need to know if TTCAAGTACAGACTGGATCTGG has measured sensor-assay potency score (higher = more potent) not below -0.03. Thanks!
Output line: 1.0

Input line: Hello, I need to know if TAAGGCAGCATGAAACACCAAG has measured sensor-assay potency score (higher = more potent) not below -0.03. Thanks!
Output line: 0.0

Input line: Hello, I need to know if TTCTTCTGGAGCAAGCTCTTCT has measured sensor-assay potency score (higher = more potent) not below -0.03. Thanks!
Output line: 0.0

Input line: Hello, I need to know if TGAACGGAACTTGATCTTCAGG has measured sensor-assay potency score (higher = more potent) not below -0.03. Thanks!
Output line: 0.0

Input line: Hello, I need to know if TTGAAGGGCATGAACTTCCCTG has measured sensor-assay potency score (higher = more potent) not below -0.03. Thanks!
Output line: 1.0

* * *

target: FFAR2; test: pooled miR-30 sensor sort-seq; sequence = guide strand; details: shRNA
Answer each item with its documented sensor-assay potency score (higher = more potent).

Hi! Can you tell me sensor-assay potency score (higher = more potent) for each of these sequences?
1. TCTCGTAGCAGGTAATTTCATT
2. TCGGTGAAGTTCTCGTAGCAGG
3. TTGAGTGAACTGAACACCACGG
4. TTCTCCTTGACCCACACCCCTG

Output line:
1: -0.802; 2: -0.822; 3: 0.516; 4: -1.59

* * *

molecular target: LASP1; experiment: pooled miR-30 sensor sort-seq; sequence = guide strand; details: shRNA
Answer each item with its documented sensor-assay potency score (higher = more potent).
Give bare numbers.

Known sensor-assay potency score (higher = more potent) results, listed for orientation:
TACACGATCTTGCCGCACCGGG : -1.34
TTTATGCCAGAACTTATCCAGA : -1.03
TATATTACTGATCTGGTCCTGG : 0.21

Hi! Can you tell me sensor-assay potency score (higher = more potent) for each of these sequences?
1. TACGCTGAAACCTTTGCCCTTG
2. TTGTAGCGCACCTGACTCTGGA
3. TTTTATATTACTGATCTGGTCC

Output line:
[0.0341, -0.666, -0.194]

* * *

biological target: MIB1; experiment: pooled miR-30 sensor sort-seq; sequence = guide strand; settings: shRNA
Answer each item with its documented sensor-assay potency score (higher = more potent).
Give bare numbers.

Hi! Can you tell me sensor-assay potency score (higher = more potent) for each of these sequences?
1. ATTGGTATTATCCTTGTCCTTT
2. TTAACTCATCAGAACTTCCAAC
3. TTCAACTACTGCTCGACACTGC
4. TTTAGATAGTAAAACACGCATT

Output line:
1. -0.409
2. -0.501
3. 0.708
4. -0.883

Hi! Can you tell me sensor-assay potency score (higher = more potent) for each of these sequences?
1. TTAAAGTCTCAAACATTCCATC
2. TTTACATCCACATCTGGTCTTT
3. ATTGACATTGGTATTATCCTTG
4. TATGCTGTCGTTCAACAGCAAG
5. TTGACCACTGACTTTTTCCTTA

Output line:
[-0.848, 0.23, 0.229, -1.72, 0.24]

* * *

biological target: WFDC8; test: pooled miR-30 sensor sort-seq; sequence = guide strand; details: shRNA
Quick rule for you: sensor-assay potency score (higher = more potent) at -0.3 or higher means criterion met, lower means criterion not met.

Would you please look over these solved cases?
TGGATTCACAACATTTGTCTGT : criterion met
TTGGGTTTATCAATCTTGGTAC : criterion met
ATCTGTGTTACATGAGTCCGGA : criterion met
TTAACAATTAACATGCAGGCCG : criterion not met
TTGTCCATCCTTAACAATTAAC : criterion not met

Now examine the next entry.
Input line: Hello, I need to know if TACATTTCAGTCCACAATGTGA has measured sensor-assay potency score (higher = more potent) not below -0.3. Thanks!
Output line: criterion not met

* * *

target: RASSF3; test: pooled miR-30 sensor sort-seq; sequence = guide strand; conditions: shRNA
Value type: sensor-assay potency score (higher = more potent)
Answers are plain numbers.

TTGTCTGTGACTGCTAAGTTGT : -0.937
TATTTATGAACTTTCTCTTTGA : -0.498

Hi! Can you tell me sensor-assay potency score (higher = more potent) for each of these sequences?
1. TCTTTGATCTCCTCTTTGCTGA
2. TAAGTTGTATTTATGAACTTTC
3. TTCATCTTCTTCCTTGTCCAAG
4. TTCAAGGTCATCTTCAACTTGT

Output line:
[-0.385, -0.5, -0.91, 0.533]
